Recorded IC50, one value per entry.
- Tested on: NCI-H209
- protocolSummary: Antiproliferative activity against human NCI-H209 cells incubated for 72 hrs
- Assay type: functional, cell-based
- reportedConditions: NCI-H209, 72 h

Study these solved cases before continuing.
In [3]: df
Out[3]:
                                   molecule    result
0  CC[C@@]1(O)C(=O)OCc2c1cc1n(c2=O)Cc2cc3c(CN(C)C)c(O)ccc3nc2-1  > 100 µM
1  CN1CCCN(Cc2cc3c(cc2-c2cc4ccc5c(c4cn2)OCO5)OCO3)CC1   > 50 µM

Record summary for CC(C)(C)C(=O)C1CCN(Cc2cc3c(cc2-c2cc4ccc5c(c4cn2)OCO5)OCO3)CC1 : reported IC50 = > 100 µM

Record summary for CC(=O)C1CCN(Cc2cc3c(cc2-c2cc4ccc5c(c4cn2)OCO5)OCO3)CC1 : reported IC50 = > 100 µM

Record summary for O=C1CCC2CCN(Cc3cc4c(cc3-c3cc5ccc6c(c5cn3)OCO6)OCO4)CN12 (stereo unspecified) : reported IC50 = > 100 µM

Record summary for CC1(F)CN(Cc2cc3c(cc2-c2cc4ccc5c(c4cn2)OCO5)OCO3)C1 : reported IC50 = > 100 µM

* * *

Recorded IC50 at 72 h, one value per entry.
- protocolSummary: Antiproliferative activity against human BEAS-2B cells incubated for 72 hrs
- Assay type: toxicity, cell-based

>>> df
                                   compound    result
0  CCCC1CCN(Cc2cc3c(cc2-c2cc4ccc5c(c4cn2)OCO5)OCO3)CC1  > 100 µM
1  CC1(F)CN(Cc2cc3c(cc2-c2cc4ccc5c(c4cn2)OCO5)OCO3)C1  > 100 µM
2  CCC1CCCC(C)N1Cc1cc2c(cc1-c1cc3ccc4c(c3cn1)OCO4)OCO2 (stereo not drawn)  > 100 µM

Record summary for CN1CCCN(Cc2cc3c(cc2-c2cc4ccc5c(c4cn2)OCO5)OCO3)CC1 : reported IC50 at 72 h = > 100 µM

Record summary for ClC1CCN(Cc2cc3c(cc2-c2cc4ccc5c(c4cn2)OCO5)OCO3)CC1 : reported IC50 at 72 h = > 100 µM

Record summary for CCC(=O)C1CCN(Cc2cc3c(cc2-c2cc4ccc5c(c4cn2)OCO5)OCO3)CC1 : reported IC50 at 72 h = > 100 µM

Record summary for c1c(CN2CCC(C3CC3)CC2)c(-c2cc3ccc4c(c3cn2)OCO4)cc2c1OCO2 : reported IC50 at 72 h = > 100 µM

Record summary for CC(=O)C1CCN(Cc2cc3c(cc2-c2cc4ccc5c(c4cn2)OCO5)OCO3)CC1 : reported IC50 at 72 h = > 100 µM

Record summary for CC(C)(C)C1CCN(Cc2cc3c(cc2-c2cc4ccc5c(c4cn2)OCO5)OCO3)CC1 : reported IC50 at 72 h = > 100 µM

Record summary for CC1(C)CCN(Cc2cc3c(cc2-c2cc4ccc5c(c4cn2)OCO5)OCO3)CC1 : reported IC50 at 72 h = > 100 µM

* * *

- protocolSummary: Antiproliferative activity against human L02 cells incubated for 72 hrs
- Assay type: toxicity, cell-based
Recorded IC50 at 72 h, one value per entry.

In [3]: df
Out[3]:
                            structurestring    result
0  CC1(F)CN(Cc2cc3c(cc2-c2cc4ccc5c(c4cn2)OCO5)OCO3)C1  > 100 µM
1  CC(=O)C1CCN(Cc2cc3c(cc2-c2cc4ccc5c(c4cn2)OCO5)OCO3)CC1  > 100 µM

Attention now turns to another entry.
Record summary for CC(C)(C)C1CCN(Cc2cc3c(cc2-c2cc4ccc5c(c4cn2)OCO5)OCO3)CC1 : reported IC50 at 72 h = > 100 µM

* * *

Recorded IC50 at 72 h, one value per entry.
- protocolSummary: Antiproliferative activity against human BEAS-2B cells incubated for 72 hrs
- Assay type: toxicity, cell-based

Study these solved cases before continuing.
>>> df
                                   compound    result
0  FC1CCN(Cc2cc3c(cc2-c2cc4ccc5c(c4cn2)OCO5)OCO3)CC1  > 100 µM
1  CC(C)(C)C(=O)C1CCN(Cc2cc3c(cc2-c2cc4ccc5c(c4cn2)OCO5)OCO3)CC1  > 100 µM

Attention now turns to another entry.
Record summary for O=C1CCC2CCN(Cc3cc4c(cc3-c3cc5ccc6c(c5cn3)OCO6)OCO4)CN12 (stereo not drawn) : reported IC50 at 72 h = > 100 µM
